- Tested system: dopamine (DA) reuptake in synaptosomes (Rattus norvegicus)
- Construct: in synaptosomes as described in WO 97/16451; from tissue
- Sequence (P23977 whole entry): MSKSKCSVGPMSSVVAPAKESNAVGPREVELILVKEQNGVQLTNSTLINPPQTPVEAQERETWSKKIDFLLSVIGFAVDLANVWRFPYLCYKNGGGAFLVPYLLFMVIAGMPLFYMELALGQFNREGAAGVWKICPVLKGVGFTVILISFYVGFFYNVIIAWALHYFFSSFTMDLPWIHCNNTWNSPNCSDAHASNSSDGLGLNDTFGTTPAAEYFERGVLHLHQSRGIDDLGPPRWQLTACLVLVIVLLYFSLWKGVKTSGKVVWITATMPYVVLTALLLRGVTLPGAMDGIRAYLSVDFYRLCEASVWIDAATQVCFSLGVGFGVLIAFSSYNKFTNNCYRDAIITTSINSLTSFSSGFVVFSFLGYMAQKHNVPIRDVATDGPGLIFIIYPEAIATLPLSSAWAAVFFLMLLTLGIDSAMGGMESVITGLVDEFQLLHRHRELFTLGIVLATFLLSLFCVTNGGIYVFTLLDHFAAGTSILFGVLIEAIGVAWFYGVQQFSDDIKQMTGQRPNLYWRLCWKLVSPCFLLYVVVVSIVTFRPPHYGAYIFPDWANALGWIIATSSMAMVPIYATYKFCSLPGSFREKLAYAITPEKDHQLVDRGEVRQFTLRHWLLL
- Protocol description: Inhibition of DA reuptake in synaptosomes
- Assay type: biochemical
- Condition parameters: synaptosomes, 3H-DA; read-out: DA-uptake IC50
- Method: Compounds were tested for their ability to inhibit the reuptake of the monoamine neurotransmitters dopamine (DA) noradrenaline (NA) and serotonine (5-HT) in synaptosomes as described in WO 97/16451 (NeuroSearch NS). The test values are given as IC50 (the concentration (μM) of the test substance which inhibits the specific binding of ^3H-DA, ^3H-NA, or ^3H-5-HT by 50%).
pIC50: −log10 of the molar value.
Please mark yes if the recorded pIC50 is equal to or greater than 6, and no if it falls below.

> print(dat)
                                    compound  classification
 1  O=C(CC1CCNCC1)Nc1ccc(Cl)c(Cl)c1 [Compound C2]              no
 2  CCN(C(=O)CC1CCN(C)CC1)c1ccc(Cl)cc1Cl [Compound D14]              no
 3  CCN(C(=O)CC1CCN(C)CC1)c1ccc(Cl)c(Cl)c1 [Compound D1]             yes
 4  CCN(C(=O)CC1CCN(C)CC1)c1c(Cl)cccc1Cl [Compound D16]              no
 5  CCN(C(=O)CC1CCNCC1)c1ccc(Br)c(Br)c1 [Compound C11]             yes
 6  CCCN(C(=O)CC1CCNCC1)c1ccc(Cl)c(Cl)c1 [Compound C12]             yes
 7  CCCN(C(=O)CC1CCN(C)CC1)c1ccc(Cl)c(Cl)c1 [Compound D20]             yes
 8  CCN(C(=O)CC1CCN(C)CC1)c1ccc(Br)c(Cl)c1 [Compound D13]             yes
 9  CCN(C(=O)CC1CCN(C(C)C)CC1)c1ccc(Cl)c(Cl)c1 [Compound D10]             yes
10  CN1CCC(CC(=O)Nc2ccc(Cl)c(Cl)c2)CC1 [Compound D6]              no
11  CCN(C(=O)CC1CCNCC1)c1ccc(Cl)c(Cl)c1Cl [Compound C10]             yes
12  CCN(C(=O)CC1CCNCC1)c1cc(Cl)ccc1Cl [Compound C7]              no
13  CN1CCC(CC(=O)N(C)c2ccc(Cl)c(Cl)c2)CC1 [Compound D12]             yes
14  CCN(C(=O)CC1CCNCC1)c1ccc(Cl)cc1 [Compound C3]             yes
15  CN(C(=O)CC1CCNCC1)c1ccc(Cl)c(Cl)c1 [Compound B1]             yes
16  CCN(C(=O)CC1CCNCC1)c1ccc(Br)c(Cl)c1 [Compound D4]             yes
17  CCN(C(=O)CC1CCNCC1)c1ccc(Cl)cc1Cl [Compound D5]              no

* * *

- Tested system: noradrenaline (NA) reuptake in synaptosomes (Rattus norvegicus)
- Construct: in synaptosomes as described in WO 97/16451; from tissue
- Sequence (Q63380 1-617): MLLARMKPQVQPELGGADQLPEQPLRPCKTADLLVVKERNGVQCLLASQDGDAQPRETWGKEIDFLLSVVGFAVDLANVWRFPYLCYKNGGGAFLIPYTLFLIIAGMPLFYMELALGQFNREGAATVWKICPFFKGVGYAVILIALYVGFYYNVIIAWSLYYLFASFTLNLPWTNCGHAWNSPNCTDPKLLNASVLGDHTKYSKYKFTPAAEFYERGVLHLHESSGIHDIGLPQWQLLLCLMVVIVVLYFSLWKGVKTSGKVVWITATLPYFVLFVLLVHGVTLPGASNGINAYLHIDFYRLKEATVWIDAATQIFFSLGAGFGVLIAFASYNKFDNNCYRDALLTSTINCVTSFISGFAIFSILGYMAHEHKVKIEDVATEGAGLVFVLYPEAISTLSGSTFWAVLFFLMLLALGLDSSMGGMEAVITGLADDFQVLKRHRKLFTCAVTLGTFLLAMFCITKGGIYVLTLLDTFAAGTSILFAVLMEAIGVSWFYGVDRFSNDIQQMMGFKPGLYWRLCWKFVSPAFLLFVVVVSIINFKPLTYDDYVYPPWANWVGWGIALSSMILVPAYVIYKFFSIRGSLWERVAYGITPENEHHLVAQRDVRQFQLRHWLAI
- Protocol description: Inhibition of NA reuptake in synaptosomes
- Format: biochemical
- Condition parameters: synaptosomes, 3H-NA; read-out: NA-uptake IC50
In this section, each of the compounds is paired with its reported IC50.
Quantity kind: IC50 (µM)

> print(dat)
                            smiles.text  quantity.kind  reading.qualifier  measured.value
1  CCN(C(=O)CC1CCN(C)CC1)c1cc(Cl)ccc1Cl           IC50                  =            0.86
2   CCN(C(=O)CC1CCNCC1)c1ccc(Cl)c(Br)c1           IC50                  =          0.0013
3       O=C(CC1CCNCC1)Nc1ccc(Cl)c(Cl)c1           IC50                  >               1
4    CCN(C(=O)CC1CCN(C)CC1)c1cccc(Cl)c1           IC50                  =            0.35
5   CCN(C(=O)CC1CCNCC1)c1cc(Cl)cc(Cl)c1           IC50                  =            0.67
